# ASSAY: total protein half-life in vivo (active degradation + dilution); higher = more stable protein
# CONDITION: wild type E. coli NCM3722; growth: C-lim chemostat; doubling time 3 h
For each of the sequences below, state its total protein half-life in vivo.
Numeric answer only, unit h assumed.

Query string: Quick check: total protein half-life in vivo of MYLSKVIIARAWSRDLYQLHQGLWHLFPNRPDAARDFLFHVEKRNTPEGCHVLLQSAQMPVSTAVATVIKTKQVEFQLQVGVPLYFRLRANPIKTILDNQKRLDSKGNIKRCRVPLIKEAEQIAWLQRKLGNAARVEDVHPISERPQYFSGDGKSGKIQTVCFEGVLTINDAPALIDLVQQGIGPAKSMGCGLLSLAPL ?
Result string: 1.61

Query string: And for MSESLHLTRNGSILEITLDRPKANAIDAKTSFEMGEVFLNFRDDPQLRVAIITGAGEKFFSAGWDLKAAAEGEAPDADFGPGGFAGLTEIFNLDKPVIAAVNGYAFGGGFELALAADFIVCADNASFALPEAKLGIVPDSGGVLRLPKILPPAIVNEMVMTGRRMGAEEALRWGIVNRVVSQAELMDNARELAQQLVNSAPLAIAALKEIYRTTSEMPVEEAYRYIRSGVLKHYPSVLHSEDAIEGPLAFAEKRDPVWKGR ?
Result string: 2.96

Query string: For MQKDALNNVHITDEQVLMTPEQLKAAFPLSLQQEAQIADSRKSISDIIAGRDPRLLVVCGPCSIHDPETALEYARRFKALAAEVSDSLYLVMRVYFEKPRTTVGWKGLINDPHMDGSFDVEAGLQIARKLLLELVNMGLPLATEALDPNSPQYLGDLFSWSAIGARTTESQTHREMASGLSMPVGFKNGTDGSLATAINAMRAAAQPHRFVGINQAGQVALLQTQGNPDGHVILRGGKAPNYSPADVAQCEKEMEQAGLRPSLMVDCSHGNSNKDYRRQPAVAESVVAQIKDGNRSIIGLMIESNIHEGNQSSEQPRSEMKYGVSVTDACISWEMTDALLREIHQDLNGQLTARVA then?
Result string: 2.24
